- testedTarget: Human immunodeficiency virus type 1 reverse transcriptase (Human immunodeficiency virus 1)
- experimentNotes: Inhibition of HIV1 recombinant reverse transcriptase p66/p51 expressed in Escherichia coli at 200 ug/mL
propertyMeasured: inhibition (%)
Give bare numbers, in %.

Quick request: inhibition for each listed item, please.
1. O=C1C[C@@H](c2ccc(O)cc2)Oc2cc(O)cc(O)c21
2. O=C1c2c(O)cc(O)cc2O[C@@H](c2ccc(O)cc2)[C@@H]1c1c(O)cc(O)c2c(=O)cc(-c3ccc(O)cc3)oc12
3. O=c1cc(-c2ccc(O)c(-c3c(O)cc(O)c4c(=O)cc(-c5ccc(O)cc5)oc34)c2)oc2cc(O)cc(O)c12
4. O=C1C[C@@H](c2ccc(O)cc2)Oc2cc(O)c(-c3c(O)cc4c(c3O)C(=O)C[C@@H](c3ccc(O)cc3)O4)c(O)c21
5. COc1ccc(-c2cc(=O)c3c(OC)cc(OC)c([C@@H]4C(=O)c5c(OC)cc(OC)cc5O[C@H]4c4ccc(OC)cc4)c3o2)cc1
6. O=c1cc(-c2ccc(Oc3c(O)cc4oc(-c5ccc(O)cc5)cc(=O)c4c3O)cc2)oc2cc(O)cc(O)c12

**Result**
1. 34.9
2. 45.3
3. 97.3
4. 22.1
5. 0
6. 89.9

**Query** Consider the molecule O=C1C[C@@H](c2ccc(O)c(O)c2)Oc2c1c(O)cc(O)c2[C@H]1C(=O)c2c(O)cc(O)cc2O[C@@H]1c1ccc(O)cc1 . State its measured inhibition.
**Result** 96
